# study.conditions: in vivo, ip
observation.type: Rat I.P. identification TOX

{"molecule": "CCCC(CCC)C(=O)O", "recorded.measurement": "−"}
{"molecule": "CC(=O)Nc1ccc(O)cc1", "recorded.measurement": "−"}
{"molecule": "Cc1ccsc1C(=CCCN1CCC[C@@H](C(=O)O)C1)c1sccc1C", "recorded.measurement": "+"}
{"molecule": "NC(=O)N1c2ccccc2C=Cc2ccccc21 [Carbamazepine, carbamazepine]", "recorded.measurement": "+"}

Kindly review the next molecule as well.
Query: Requested read-out: Rat I.P. identification TOX. Entry: CC[C@@H](C(N)=O)N1CCCC1=O
Result: −

====

# assay.summary: in vivo
# study.conditions: mouse, ip
observation.type: TD50 (mg/kg)
I only need the number, in mg/kg, no unit after it.

Reference set (3 entries):
{"molecule": "Cc1ccsc1C(=CCCN1CCC[C@@H](C(=O)O)C1)c1sccc1C [Tiagabine, tiagabine]", "recorded.measurement": 5.84}
{"molecule": "CN1C(=O)CC(=O)N(c2ccccc2)c2cc(Cl)ccc21 [Clobazam, clobazam]", "recorded.measurement": 26.1}
{"molecule": "CCOC(=O)Nc1ccc(NCc2ccc(F)cc2)cc1N [Retigabine, retigabine]", "recorded.measurement": 129}

Query: Requested read-out: TD50. Entry: OC[C@H]1O[C@@H](n2cnc3c(NC4CCCC4)ncnc32)[C@H](O)[C@@H]1O [N6-Cyclopentyladenosine, N^6-cyclopentyladenosine]
Result: 0.94

====

# Tested on: MES-induced seizures
# assay.summary: Maximal electroshock
# Assay type: in vivo
# study.conditions: p.o.; 0.5 and 2 h; default doses 30, 100, 300 mg/kg
observation.type: Mouse P.O. identification MES

{"compound": "CN1C(=O)CC(=O)N(c2ccccc2)c2cc(Cl)ccc21 [Clobazam, clobazam]", "Mouse P.O. identification MES": "+"}
{"compound": "OC[C@H]1O[C@@H](n2cnc3c(NC4CCCC4)ncnc32)[C@H](O)[C@@H]1O [N6-Cyclopentyladenosine, N^6-cyclopentyladenosine]", "Mouse P.O. identification MES": "+"}
{"compound": "CC[C@@H](C(N)=O)N1CCCC1=O [Levetiracetam, levetiracetam]", "Mouse P.O. identification MES": "−"}
{"compound": "Clc1cccc(N2CCNCC2)c1 [m-CPP, meta-chlorophenylpiperazine]", "Mouse P.O. identification MES": "−"}
{"compound": "CCOC(=O)Nc1ccc(NCc2ccc(F)cc2)cc1N [Retigabine, retigabine]", "Mouse P.O. identification MES": "+"}

Query: Requested read-out: Mouse P.O. identification MES. Entry: CC(=O)Nc1ccc(O)cc1 [Acetaminophen, acetaminophen]
Result: −

Query: Quick one: NC(=O)N1c2ccccc2C=Cc2ccccc21 [Carbamazepine, carbamazepine]
Result: +

Query: Quick one: CCCC(CCC)C(=O)O [Valproic acid, valproic acid]
Result: −

Query: Quick one: Cc1ccsc1C(=CCCN1CCC[C@@H](C(=O)O)C1)c1sccc1C [Tiagabine, tiagabine]
Result: −

====

# System: MES-induced seizures
# assay.summary: Maximal electroshock
# Format: in vivo
# study.conditions: Mus musculus, po, read-out: Mouse P.O. quantification MES (ED50)
// values below are reported ED50

Reference set (4 entries):
{"compound": "CCCC(CCC)C(=O)O", "study.system": "MES-induced seizures", "ED50": "> 300 mg/kg"}
{"compound": "OC[C@H]1O[C@@H](n2cnc3c(NC4CCCC4)ncnc32)[C@H](O)[C@@H]1O", "study.system": "MES-induced seizures", "ED50": "4.43 mg/kg"}
{"compound": "CN1C(=O)CC(=O)N(c2ccccc2)c2cc(Cl)ccc21", "study.system": "MES-induced seizures", "ED50": "29.9 mg/kg"}
{"compound": "NC(=O)N1c2ccccc2C=Cc2ccccc21 [Carbamazepine, carbamazepine]", "study.system": "MES-induced seizures", "ED50": "11.3 mg/kg"}

Query: Requested read-out: ED50. Entry: CCOC(=O)Nc1ccc(NCc2ccc(F)cc2)cc1N
Result: 57 mg/kg
